# key: entry, value: PET hydrolysis
# experiment.description: PET hydrolysis, aromatic products released after 48 h (umol product/mg enzyme); higher = more PET depolymerization activity
# details: substrate: cryPow; 60 °C; pH 4.5

# sequence.string, property.label, reading
rows = [
    ("ADNPYQRGPDPTAASIAAVTGPFATASVTVPRGNGFGGGVIYYPTDTSQGTFGGIAISPGLNGTWPGIAWLGPRLASQGFVVFGIETNNLNDSPTSRGTQLLAALDYLTGSSSVRTRVDAGRLAVAGHSMGGGGALDAALRRPSLRATIGNAPHLPSGSLANDRVPTLIYAMQNDTLVPPSRLTSLYNTVPATTERGYLEITGAGHNYIGQPSTILARTMIPWLKIFVDDDARYSQFLCPLTDRSGISQYQSSCPLITTSPTTGPTAQPTTAAPTTTPTTPPVGGPCEATHRTVNSWSGGYQGEVTVRAGSAAINGWTVSWTLGSGQTINQVWGGALTASGTAATVRNETWNGPVAAGASTTFGYIATGNAPTQPLACSAR [ESM060]", "PET hydrolysis", "< 3"),
    ("SNPTPTPTPTPTPTPTPGNNPFQRGPNPTLSFIEANSGPYSVRTSRVSSYTSGFGGGTIHYPTGQSGTMGAIVVIPGFVSAESSIEWWGPKLASHGFVVMTIDTNSGFDQPPSRARQINAALDYLVAQNRSSRSPVRGMIDTNRLGVVGWSMGGGGTLRVASEGRIKAAIPLAPWDTTSFRNVKAPTLIFACESDVIAPVGQHASPFYNELPSNISKAFVELNGGSHYCGNGGNSYNDVLSRFGVSWMKRFLDNDTRYSQFLCGPNHTSDRDISEYRGNCNY [ESM042]", "PET hydrolysis", "< 3"),
    ("ADNPYQRGPDPTPASVAAVNGPFATASVSVPAGYGFGGGMIYYPTDTSQGTFGGIAISPGYTALFSAELAWMGPWLASHGFVVIGIETNSRNDFDEARGTQLLAALDYLTQQSPVRTRVDPNRLAVSGHSMGGGGALNAAIRRPSLKAAVGLAPFLPSSNLANDRVPTMVFAGQQDTVVSPSYVTNLYNSLPATTESAYLEIAGGDHGFPVGRPNQVMIRTMLPFVKIFLDNDTRYSQFLCPLMDSTGVVTYRSTCPLLPPGLPTTPPTSTSSNPTVGPTTPSTTAPTTTPAPGGACTATYRTTNSWPGGFQGEVTITAGSSAINGWTVRWTLGSGQTISQVWNGEVSITGSTVSVRNAPYNGSLPASGSTTFGFLGGGSPSSPSLTCTSP [TEP165]", "PET hydrolysis", 12),
    ("CATAGSALVSAPSLSGDGSYEVQTYTDFPDVPEFGAATIYYPVGASEPMGGVAIAPGFTEEQRHIAWWGPRLASHGYAVLVLDTNDRRERPDARADALIAGVTLLRAEGRRRGSPLFGRIDAAKMAIMGHSMGGGGALLAADEHSDLIRAAIPFTPWEPETDLRGISAPTLVLAGAADRVAEVEGHAWRHFSMIPESTPKVYMEIAGGDHYIADTTRGMDLATVGRYAIAWLKLYVDGDEQYRDLIYGEIPPADAAKFSRYVVNP [TEP157]", "PET hydrolysis", "< 3"),
]

Now, please, on to the next sequence.
Query string: PET hydrolysis for ADNPYERGPAPTNASIEAVRGPYAVSQATVSSLAVTGFGGGTIYYPTTTSDGTFGAVAISPGYTGTQSSIAWLGPRLASQGFVVFTIDTNTTLDQPDSRGRQLLAALDYLTRVSPLRTRVDSTRLGVMGHSMGGGGSLEAAKSRPSLQAAIPLTPWNLDKTWPEIQTPTLIVGADGDSIAPVSSHAEPFYENLPSSLDRAYLELNGASHFAPNSSNTTIAKYSISWLKRFIDNDTRYEQFLCPLPRPSLTIEEYRGNCPHQS [TEP188] ?
Result string: < 3
